Every entry's value here was drawn from ChEMBL document CHEMBL1961873.

compounds and their reported inhibition
Biological target: Serine/threonine-protein kinase PAK 5 (Homo sapiens)
Conditions: at 1 µM
Description: GSK_PKIS: PAK5 mean inhibition at 1 uM [Nanosyn]
Express it in %; write the number only.

See these solved cases before continuing.
1) Fc1ccc(-c2nc3n(c2-c2ccncc2)CCS3)cc1 ... -7.5
2) COc1cc(Nc2ncc3c(C)nc(-c4cccc(Oc5ccccc5)c4)n3n2)cc(OC)c1OC ... 4.51
3) c1ccc(Oc2ccc(Nc3ncc(-c4ccccc4)o3)cc2)cc1 ... 2.2
4) COc1cc(Nc2ncc(-c3ccccc3)o2)cc(OC)c1OC ... 7.2

Q: Request the reported inhibition associated with O=C(NCC1CC1)c1ccc(-c2cccc(C(=O)NC3CC3)c2)cc1
Ans: 6.07

Q: Request the reported inhibition associated with Cc1ccc(NC(=O)c2ccoc2)cc1-c1ccc(C(=O)NCC2CC2)cc1
Ans: 2.58

Q: Request the reported inhibition associated with c1ccc(-c2n[nH]cc2-c2ccnc(-c3ccc(OCCN4CCOCC4)cc3)c2)nc1
Ans: 4.04

Q: Request the reported inhibition associated with COc1cc(C)c(N(C)C(=O)CN(C)C)cc1Nc1nc(Nc2cccc(F)c2C(N)=O)c2cc[nH]c2n1
Ans: 1.84

Q: Request the reported inhibition associated with C#Cc1cccc(Nc2ncnc3ccc(OCCCCNCCS(C)(=O)=O)cc23)c1
Ans: 4.31

Q: Request the reported inhibition associated with Fc1ccc(-c2c(-c3ccncc3)nc3n2CCS3)cc1
Ans: 3.62
